# tested-target: UniProt:Q64077
# Sequence (Q64077 whole entry): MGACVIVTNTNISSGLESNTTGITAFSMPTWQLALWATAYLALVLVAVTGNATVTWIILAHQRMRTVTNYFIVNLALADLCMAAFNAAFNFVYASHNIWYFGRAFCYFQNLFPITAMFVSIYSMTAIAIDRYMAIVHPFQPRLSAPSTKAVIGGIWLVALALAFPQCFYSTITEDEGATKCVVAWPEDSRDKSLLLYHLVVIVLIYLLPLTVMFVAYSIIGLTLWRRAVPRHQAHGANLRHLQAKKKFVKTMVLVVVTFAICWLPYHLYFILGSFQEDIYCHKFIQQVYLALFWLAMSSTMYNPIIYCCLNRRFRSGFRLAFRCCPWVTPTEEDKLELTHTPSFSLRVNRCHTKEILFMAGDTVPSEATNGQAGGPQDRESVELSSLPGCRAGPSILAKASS
# assay-info: In vivo potency as dose ratio (ED50 ratio for Tachykinin receptor 2 (NK2) in presence and absence of antagonist) in guinea pig PMM after intravenous administration at a dose 10 uM/Kg
metric-name: dose ratio

| sample-smiles | tested-target | dose ratio |
| --- | --- | --- |
| COc1c(C#N)cc2ccccc2c1C(=O)N(C)C[C@@H](CCN1CCC(c2ccccc2[S@+](C)[O-])CC1)c1ccc(Cl)c(Cl)c1 | UniProt:Q64077 | 14 |
| CNC(=O)C1(N2CCCCC2=O)CCN(CC[C@H](CN(C)C(=O)c2c(OC)c(C#N)cc3ccccc23)c2ccc(Cl)c(Cl)c2)CC1 | UniProt:Q64077 | 155 |

[A] CN(C[C@@H](CCN1CCC(c2ccc(F)cc2[S@+](C)[O-])CC1)c1ccc(Cl)c(Cl)c1)C(=O)c1cc(C#N)cc2ccccc12
[B] CN(C[C@@H](CCN1CCC(c2ccc(Br)cc2[S@+](C)[O-])CC1)c1ccc(Cl)c(Cl)c1)C(=O)c1cc(C#N)cc2ccccc12
Choose between A and B : whose measured dose ratio value is numerically larger? Please reply using the label of the selected record.
A
(A: 153, B: 30)
